assay system: GalNAc(b1-3)GalNAc
measurement protocol: glycan array binding signal (z-score within array); higher = stronger binding
experimental conditions: glycan notation: IUPAC condensed, linker removed
This excerpt belongs to a sample that is enriched for the strongest signals.
Entries are grouped by glycan array binding signal (z-score) into these classes: c1: < -0.3; c2: ≥ -0.3 and < 0.5; c3: ≥ 0.5

Categorize the following entry: IRP60A (Homo sapiens), Q9UGN4 (protein) MWLPWALLLLWVPGCFALSKCRTVAGPVGGSLSVQCPYEKEHRTLNKYWCRPPQIFLCDKIVETKGSAGKRNGRVSIRDSPANLSFTVTLENLTEEDAGTYWCGVDTPWLRDFHDPVVEVEVSVFPASTSMTPASITAAKTSTITTAFPPVSSTTLFAVGATHSASIQEETEEVVNSQLPLLLSLLALLLLLLVGASLLAWRMFQKWIKAGDHSELSQNPKQAATQSELHYANLELLMWPLQEKPAPPREVEVEYSTVASPREELHYASVVFDSNTNRIAAQRPREEEPDSDYSVIRKT
c2

Categorize the following entry: CTLX (Homo sapiens), Q6UXS0 (protein) SLCPLFWMEFKGHCYRFFPLNKTWAEADLYCSEFSVGRKSAKLASIHSWEENVFVYDLVNSCVPGIPADVWTGLHDHRQEGQFEWTDGSSYDYSYWDGSQPDDGVHADPEEEDCVQIWYRPTSALRSWNDNTCSRKFPFVCKIPSLTIH
c1

Categorize the following entry: ABA (Agaricus bisporus), Q00022 (protein) MTYTISIRVYQTTPKGFFRPVERTNWKYANGGTWDEVRGEYVLTMGGSGTSGSLRFVSSDTDESFVATFGVHNYKRWCDIVTNLTNEQTALVINQEYYGVPIRDQARENQLTSYNVANAKGRRFAIEYTVTEGDNLKANLIIG
c2

Categorize the following entry: Jacalin (Artocarpus integrifolia) (protein) MAYSSLLSLSVLALLFSISSADTRKWFLANGINQNPIGIIEAAVGVSEDLLNLNGMEAKNDEQSGISQTVIVGPWGAKVSTSSNGKAFDDGAFTGIREINLSYNKETAIGDFQVVYDLNGSPYVGQNHKSFITGFTPVKISLDFPSEYIMEVSGYTGNVSGYVVVRSLTFKTNKKTYGPYGVTSGTPFNLPIENGLIVGFKGSIGYWLDYFSMYLSL
c3

Categorize the following entry: Mannose Binding Protein (Lactobacillus plantarum) (protein) AERSEAALTHVDKDNFLKYFSLNGSATYDAKTGIVTITPNQNNQVGNFSLTSKIDMNKSFTLTGQVNLGSNPNGADGIGFAFHSGNTTDVGNAGGNLGIGGLQDAIGFKLDTWFNSYQAPSSDKNGSEISSTNSNGFGWNGDSANAPYGTFVKTSNQEISTANGSKVQRWWAQDTGESQALSKADIDGNFHDFVVNYDGATRTLTVSYTQASGKVLTWKTTVASSYQAMAMVVSASTGAAKNLQQFKLTSFDFQEAATVNVKYVDTTGHQLAQG
c3

Categorize the following entry: GSL-I (Griffonia simplicifolia) (protein) FNLPNFWSDVKDNIIFQGDANTTAGTLQLCKTNQYGNPLQYRAGRALYSDPVQLWDNKTGSVASFYTEFTFFLKITGDGPADGLAFFLAPPDSDVKDAGAYLGLFNKSTATQPSKNQVVAVEFDTWKNTDFPEPSYRHIGINVNSIVSVATKRWEDSDIFSGKIATARISYDGSAKILTVVLSYPDGADYILSHSVDLSKNLPNPIRVGISASTGANQFLTVYVLSWRFSSALQSTSVNAAMGPEIIRTVV
c2

Categorize the following entry: Mindin (Homo sapiens), Q9BUD6 (protein) MENPSPAAALGKALCALLLATLGAAGQPLGGESICSARALAKYSITFTGKWSQTAFPKQYPLFRPPAQWSSLLGAAHSSDYSMWRKNQYVSNGLRDFAERGEAWALMKEIEAAGEALQSVHEVFSAPAVPSGTGQTSAELEVQRRHSLVSFVVRIVPSPDWFVGVDSLDLCDGDRWREQAALDLYPYDAGTDSGFTFSSPNFATIPQDTVTEITSSSPSHPANSFYYPRLKALPPIARVTLVRLRQSPRAFIPPAPVLPSRDNEIVDSASVPETPLDCEVSLWSSWGLCGGHCGRLGTKSRTRYVRVQPANNGSPCPELEEEAECVPDNCV
c2
